# tested-on: Liver carboxylesterase (Sus scrofa, UniProt Q29550)
# Sequence (Q29550 whole entry): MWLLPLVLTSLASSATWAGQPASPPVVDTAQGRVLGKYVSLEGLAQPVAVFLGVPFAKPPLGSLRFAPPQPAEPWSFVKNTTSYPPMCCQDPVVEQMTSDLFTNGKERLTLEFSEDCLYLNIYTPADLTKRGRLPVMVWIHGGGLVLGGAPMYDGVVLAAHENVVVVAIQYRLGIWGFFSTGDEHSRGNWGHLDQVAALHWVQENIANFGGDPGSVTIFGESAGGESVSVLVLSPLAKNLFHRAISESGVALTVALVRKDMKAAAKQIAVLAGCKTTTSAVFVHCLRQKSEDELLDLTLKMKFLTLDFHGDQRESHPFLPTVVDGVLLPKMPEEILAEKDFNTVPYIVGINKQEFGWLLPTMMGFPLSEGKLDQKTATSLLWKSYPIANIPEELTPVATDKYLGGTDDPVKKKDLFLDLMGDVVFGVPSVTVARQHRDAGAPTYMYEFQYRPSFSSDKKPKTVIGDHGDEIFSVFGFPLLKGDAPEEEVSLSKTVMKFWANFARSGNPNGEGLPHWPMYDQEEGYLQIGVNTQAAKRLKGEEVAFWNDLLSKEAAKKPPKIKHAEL
readout-type: pKi
Entry type: numeric. Quantity: pKi, the -log10 of concentration in molar units.

In plain terms, `Cc1ccc(N/N=C(\C(=O)O)C(=O)C(F)(F)F)cc1` has a documented pKi of 6.47

---

# tested-on: Acetylcholinesterase (Homo sapiens) (UniProt P22303)
# Sequence (P22303 whole entry): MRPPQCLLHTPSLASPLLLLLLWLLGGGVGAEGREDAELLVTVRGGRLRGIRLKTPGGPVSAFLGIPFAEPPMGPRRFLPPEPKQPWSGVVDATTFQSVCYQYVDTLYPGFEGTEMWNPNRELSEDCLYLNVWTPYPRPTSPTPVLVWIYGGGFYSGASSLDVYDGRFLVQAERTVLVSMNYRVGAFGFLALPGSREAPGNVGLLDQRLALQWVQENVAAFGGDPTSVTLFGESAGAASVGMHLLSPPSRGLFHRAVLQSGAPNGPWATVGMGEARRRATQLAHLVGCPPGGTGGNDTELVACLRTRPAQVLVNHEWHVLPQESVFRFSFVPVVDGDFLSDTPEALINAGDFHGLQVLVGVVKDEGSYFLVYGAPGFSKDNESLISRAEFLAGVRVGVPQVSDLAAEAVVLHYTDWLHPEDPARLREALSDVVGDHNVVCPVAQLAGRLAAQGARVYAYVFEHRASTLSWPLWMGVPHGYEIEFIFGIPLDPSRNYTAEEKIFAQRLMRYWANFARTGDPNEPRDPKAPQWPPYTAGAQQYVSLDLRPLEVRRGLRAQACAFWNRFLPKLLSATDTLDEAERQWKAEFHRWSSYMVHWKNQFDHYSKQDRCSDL
# experiment-description: Inhibition of human erythrocyte AChE at 20 uM using acetylthiocholine iodide as substrate preincubated for 10 mins followed by substrate addition by Ellman's method relative to control
Activity calls are given as the source filed them. The rule behind the calls is not given here.
readout-type: inhibition

Completed entries (count: 6):
CC(=O)/C(=N/Nc1ccc(C)cc1)C(=O)O    inactive
O=C(O)/C(=N\Nc1ccc([N+](=O)[O-])cc1)C(=O)C(F)(F)F    6.1%
COc1ccc(N/N=C(/C(C)=O)C(=O)O)cc1    inactive
Cc1ccc(N/N=C(\C(=O)O)C(=O)C(F)(F)F)cc1    inactive
CCOC(=O)c1ccccc1N/N=C(\C(=O)O)C(=O)C(F)(F)F    16.5%
CCOC(=O)c1ccc(N/N=C(\C(=O)O)C(=O)C(F)(F)F)cc1    8.1%

# `O=[N+]([O-])c1ccc(OP(=O)(O)Oc2ccc([N+](=O)[O-])cc2)cc1` with Acetylcholinesterase (Homo sapiens) (UniProt P22303): inhibition is inactive

# `COc1ccc(N/N=C(\C(=O)O)C(=O)C(F)(F)F)cc1` with Acetylcholinesterase (Homo sapiens) (UniProt P22303): inhibition is inactive

---

As an illustration, consider measured IC50 for compounds on Liver carboxylesterase (Sus scrofa).

COc1ccc(N/N=C(\C(=O)O)C(=O)C(F)(F)F)cc1    2620 nM
CCOC(=O)c1ccc(N/N=C(\C(=O)O)C(=O)C(F)(F)F)cc1    324 nM

# `O=C(O)/C(=N\Nc1ccc([N+](=O)[O-])cc1)C(=O)C(F)(F)F` with Liver carboxylesterase (Sus scrofa): IC50 is 2760 nM

# `Cc1ccc(N/N=C(\C(=O)O)C(=O)C(F)(F)F)cc1` with Liver carboxylesterase (Sus scrofa): IC50 is 630 nM

# `CCOC(=O)c1ccccc1N/N=C(\C(=O)O)C(=O)C(F)(F)F` with Liver carboxylesterase (Sus scrofa): IC50 is 69.6 nM

---

# tested-on: Liver carboxylesterase (Sus scrofa, UniProt Q29550)
# experiment-description: Inhibition of porcine liver carboxylesterase at 20 uM using 4-NPA as substrate preincubated for 10 mins followed by substrate addition by spectrophotometric analysis relative to control
# condition-set: pig, porcine liver carboxylesterase, probe 4-NPA
readout-type: inhibition at 20 µM (%)
Use % as the unit, but write only the number.

In plain terms, `CC(=O)/C(=N/Nc1ccc(C)cc1)C(=O)O` has a documented inhibition at 20 µM of 9.3

---

# tested-on: Cholinesterase (Equus caballus) (UniProt P81908)
# Sequence (P81908 whole entry): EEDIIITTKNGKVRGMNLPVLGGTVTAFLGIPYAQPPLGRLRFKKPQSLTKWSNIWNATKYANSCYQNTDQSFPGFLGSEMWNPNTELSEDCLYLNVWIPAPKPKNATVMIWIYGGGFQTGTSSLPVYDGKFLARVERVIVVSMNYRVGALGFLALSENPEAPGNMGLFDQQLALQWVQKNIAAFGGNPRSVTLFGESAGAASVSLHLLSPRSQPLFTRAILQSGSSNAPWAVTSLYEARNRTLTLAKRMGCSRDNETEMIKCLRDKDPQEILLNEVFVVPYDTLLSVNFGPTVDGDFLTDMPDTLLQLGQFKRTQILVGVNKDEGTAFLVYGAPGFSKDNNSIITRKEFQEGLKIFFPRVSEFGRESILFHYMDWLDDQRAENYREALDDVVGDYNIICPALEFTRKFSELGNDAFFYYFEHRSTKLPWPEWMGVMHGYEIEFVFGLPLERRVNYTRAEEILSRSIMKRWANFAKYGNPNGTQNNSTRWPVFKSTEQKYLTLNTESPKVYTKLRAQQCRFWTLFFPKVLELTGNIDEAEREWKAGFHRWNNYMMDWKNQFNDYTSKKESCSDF
# experiment-description: Inhibition of equine serum BuChE at 20 uM using […] as substrate preincubated for 10 mins followed by substrate addition by Ellman's method relative to control
The source made the active and inactive calls. The calls are words filed in the database; no cut-off is given here.
readout-type: inhibition

Completed entries (count: 5):
COc1ccc(N/N=C(\C(=O)O)C(=O)C(F)(F)F)cc1    17.3%
COc1ccc(N/N=C(/C(C)=O)C(=O)O)cc1    5.4%
Cc1ccc(N/N=C(\C(=O)O)C(=O)C(F)(F)F)cc1    18.1%
CCOC(=O)c1ccccc1N/N=C(\C(=O)O)C(=O)C(F)(F)F    8.7%
O=C(O)/C(=N\Nc1ccc([N+](=O)[O-])cc1)C(=O)C(F)(F)F    17.3%

In plain terms, `CCOC(=O)c1ccc(N/N=C(\C(=O)O)C(=O)C(F)(F)F)cc1` has a documented inhibition of 3.4%

In plain terms, `CC(=O)/C(=N/Nc1ccc(C)cc1)C(=O)O` has a documented inhibition of inactive

In plain terms, `O=[N+]([O-])c1ccc(OP(=O)(O)Oc2ccc([N+](=O)[O-])cc2)cc1` has a documented inhibition of inactive
